Numbers sourced from patent US11884676B2.

TARGET UNDER TEST: Human M4 (Homo sapiens, UniProt P08173)
Sequence (P08173 whole entry): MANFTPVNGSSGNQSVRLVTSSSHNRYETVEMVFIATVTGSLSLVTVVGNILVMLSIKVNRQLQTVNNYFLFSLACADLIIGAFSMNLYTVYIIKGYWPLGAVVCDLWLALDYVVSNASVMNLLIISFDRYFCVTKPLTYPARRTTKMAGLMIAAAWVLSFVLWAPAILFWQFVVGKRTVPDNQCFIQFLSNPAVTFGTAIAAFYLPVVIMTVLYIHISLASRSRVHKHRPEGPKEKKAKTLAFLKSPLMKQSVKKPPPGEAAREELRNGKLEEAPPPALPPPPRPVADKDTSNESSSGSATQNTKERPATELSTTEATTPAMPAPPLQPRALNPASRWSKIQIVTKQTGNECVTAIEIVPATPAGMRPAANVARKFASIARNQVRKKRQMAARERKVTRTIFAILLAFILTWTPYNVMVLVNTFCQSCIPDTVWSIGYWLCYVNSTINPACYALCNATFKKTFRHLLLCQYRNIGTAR
TEST NAME: mAChR M4 cell-based functional assay (calcium flux, PAM mode)
TEST CONTEXT: hM4-Gqi5 CHO-K1 cells; concentration-dependent increase in the EC20 acetylcholine response
Protocol: […] Calcium flux was measured using the Functional Drug Screening System (FDSS) 6000 or 7000 (Hamamatsu Corporation, Tokyo, Japan) as an increase in the fluorescent static ratio. […] Agonist activity was analyzed as a concentration-dependent increase in calcium mobilization upon compound addition. Positive allosteric modulator activity was analyzed as a concentration-dependent increase in the EC20 acetylcholine response. […]
pEC50: −log10 of the molar value.
Answer Not fulfilled if pEC50 is under 7, and Fulfilled if it is 7 or more.

Solved cases (5 shown):
1) [2H]C1(Oc2ccc3c(c2)OC([2H])([2H])C([2H])([2H])O3)CCN(c2nn3c(=O)c(C)c(C)nc3cc2C)CC1 [Compound 47]: Fulfilled
2) [2H]C1([2H])Oc2ccc(OC3CCN(c4nn5c(=O)ccnc5c(C)c4C4CC4)CC3)cc2OC1([2H])[2H] [Compound 105]: Not fulfilled
3) [2H]C1([2H])Oc2ccc(O[C@H]3CCN(c4nn5c(=O)ccnc5c(C)c4C)C[C@H]3F)cc2OC1([2H])[2H] [Compound 119]: Fulfilled
4) [2H]C1([2H])Oc2ccc(O[C@@H]3CCN(c4nn5c(=O)ccnc5c(C)c4C)C[C@@H]3F)cc2OC1([2H])[2H] [Compound 118]: Fulfilled
5) [2H]C1([2H])Oc2ccc(OC3CCN(c4nn5c(=O)c(C)cnc5cc4C)CC3)cc2OC1([2H])[2H] [Compound 29]: Fulfilled

Q: Reported pEC50 reaches at least 7 for Cc1cc(=O)n2nc(N3CCC(Oc4ccc5c(c4)C(=O)N(C)CC5)CC3)c(C)cc2n1 [Compound 73] ?
Result: Not fulfilled

Q: Reported pEC50 reaches at least 7 for [2H]C1([2H])Oc2ccc(O[C@@H]3CCN(c4nn5c(=O)ccnc5c(C)c4C)C[C@H]3F)cc2OC1([2H])[2H] [Compound 128] ?
Result: Fulfilled

Q: Reported pEC50 reaches at least 7 for [2H]C1([2H])Oc2ccc(OC3CCN(c4nn5c(=O)c(F)c(C)nc5cc4C)CC3)cc2OC1([2H])[2H] [Compound 15] ?
Result: Fulfilled

Q: Reported pEC50 reaches at least 7 for [2H]C1(Oc2ccc3c(c2)OCO3)CCN(c2nn3c(=O)cc(C(F)(F)F)nc3cc2C)CC1 [Compound 63] ?
Result: Not fulfilled

----------
TARGET UNDER TEST: Human M4 (Homo sapiens)
Construct: expressed in transfected cells
TEST NAME: mAChR M4 cell-based functional assay (calcium flux, PAM mode)
TEST CONTEXT: CHO-K1, % ACh maximum at 30 μM; hM4-Gqi5 CHO-K1 cells
Reported Emax at 30 µM is given for each of the following compounds.
Unit % implied. Number only.

1) [2H]C1(Oc2ccc3c(c2)OC([2H])([2H])C([2H])([2H])O3)CCN(c2nn3c(=O)ccnc3c(C)c2C)CC1: 97
2) [2H]C1(Oc2ccc3c(c2)OC([2H])([2H])C([2H])([2H])O3)CCN(c2nn3c(=O)ccnc3c(COC)c2C)CC1: 78

Human M4 (Homo sapiens) Emax at 30 µM of [2H]C1(Oc2ccc(C)cc2)CCN(c2nn3c(=O)ccnc3cc2C)CC1 is 89

Human M4 (Homo sapiens) Emax at 30 µM of [2H]C1([2H])Oc2cc(OC3CCN(c4nn5c(=O)ccnc5cc4C)CC3)cc(F)c2OC1([2H])[2H] is 97

Human M4 (Homo sapiens) Emax at 30 µM of [2H]C1(Oc2ccc3c(c2)OCO3)CCN(c2nn3c(=O)cc(C(F)F)nc3cc2C)CC1 is 108

Human M4 (Homo sapiens) Emax at 30 µM of [2H]C1([2H])Oc2ccc(O[C@@H]3CCN(c4nn5c(=O)ccnc5c(C)c4C)C[C@H]3F)cc2OC1([2H])[2H] is 125

Human M4 (Homo sapiens) Emax at 30 µM of Cc1cc2nccc(=O)n2nc1N1CC[C@@H](Oc2ccc3c(c2)OCCO3)[C@@H](C)C1 (single isomer, unassigned) is 96
